Experiment: Permeability of the compound at pH 5.5 at 100 uM after 4 hrs by PAMPA
A collection of molecules and their measured Papp at 4 h, 100 µM
Hi, when you answer, please include the unit after the number. Thanks!

Here is how some molecules turned out for Papp at 4 h, 100 µM.
- SMILES_REPRESENTATION: "c1ccc(CN(CCCCN(C[C@H]2Cc3ccccc3CN2)[C@H]2CCCc3cccnc32)Cc2ccccn2)nc1"
  ENDPOINT_RESULT: "4.8 ×10⁻⁶ cm/s"
- SMILES_REPRESENTATION: "c1ccc(CNCc2ccc(CN(C[C@H]3Cc4ccccc4CN3)[C@H]3CCCc4cccnc43)cc2)nc1"
  ENDPOINT_RESULT: "1.6 ×10⁻⁶ cm/s"
- SMILES_REPRESENTATION: "NC/C=C\\CN(C[C@H]1Cc2ccccc2CN1)[C@H]1CCCc2cccnc21"
  ENDPOINT_RESULT: "3.9 ×10⁻⁶ cm/s"
- SMILES_REPRESENTATION: "c1ccc(CN(CCCCN(C[C@H]2Cc3ccccc3CN2)[C@H]2CCCc3cccnc32)Cc2ccccc2)cc1"
  ENDPOINT_RESULT: "3.9 ×10⁻⁶ cm/s"

Consider now this further molecule.
Exercise: Param item = "CC(C)(CCN)CN(C[C@H]1Cc2ccccc2CN1)[C@H]1CCCc2cccnc21" ; retrieve measured Papp at 4 h, 100 µM.
Solution: 26.8 ×10⁻⁶ cm/s

###

Molecular target: C-X-C chemokine receptor type 4 (Homo sapiens, UniProt P61073)
Sequence (P61073 whole entry): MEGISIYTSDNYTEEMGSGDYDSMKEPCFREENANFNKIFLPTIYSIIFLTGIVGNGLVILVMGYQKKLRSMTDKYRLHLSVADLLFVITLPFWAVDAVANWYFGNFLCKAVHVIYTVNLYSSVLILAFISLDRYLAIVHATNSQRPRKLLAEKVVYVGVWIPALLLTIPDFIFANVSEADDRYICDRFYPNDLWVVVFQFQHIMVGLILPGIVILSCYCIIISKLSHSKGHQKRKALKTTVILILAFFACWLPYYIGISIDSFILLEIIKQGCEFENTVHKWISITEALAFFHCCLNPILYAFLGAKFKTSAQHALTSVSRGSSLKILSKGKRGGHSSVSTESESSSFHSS
Experiment: Antagonist activity at human CXCR4 in CCRF-CEM cells assessed as decrease in SDF-1alpha stimulated Ca2+ flux preincubated for 25 mins followed by SDF-1alpha addition measured for 90 secs by calcium dye-based fluorescence assay
QUANTITY_KIND: IC50

Some solved cases for reference:
- SMILES_REPRESENTATION: "c1ccc2c(c1)CN[C@@H](CN(CCCCNCC1CCCCC1)[C@H]1CCCc3cccnc31)C2"
  QUANTITY_KIND: "IC50"
  ENDPOINT_RESULT: "158 nM"
- SMILES_REPRESENTATION: "CC(C)(CN)CCN(C[C@H]1Cc2ccccc2CN1)[C@H]1CCCc2cccnc21"
  QUANTITY_KIND: "IC50"
  ENDPOINT_RESULT: "69 nM"
- SMILES_REPRESENTATION: "c1cncc(CNCCCCN(C[C@H]2Cc3ccccc3CN2)[C@H]2CCCc3cccnc32)c1"
  QUANTITY_KIND: "IC50"
  ENDPOINT_RESULT: "15.3 nM"

Exercise: # lookup: IC50 of "c1ccc(CN(CCCCN(C[C@H]2Cc3ccccc3CN2)[C@H]2CCCc3cccnc32)Cc2ccccn2)nc1"
Solution: 664 nM

Exercise: Next compound: "FC1(F)CCC(CNCCCCN(C[C@H]2Cc3ccccc3CN2)[C@H]2CCCc3cccnc32)CC1"
Solution: 168 nM

Exercise: Input "NC/C=C/CN(C[C@H]1Cc2ccccc2CN1)[C@H]1CCCc2cccnc21"
Solution: 129 nM

###

Assay: Metabolic stability in human liver microsomes assessed as parent compound remaining at 0.5 uM after 10 mins in presence of NADPH by LC-MS/MS analysis
Mark 1.0 only when remaining at 10 min, 0.5 µM stays strictly below 30%. Values equal to the cut-off are 0.0.

Field: example entries. Status: answers known.
- SMILES_REPRESENTATION: "C(=C\\CN(C[C@H]1Cc2ccccc2CN1)[C@H]1CCCc2cccnc21)/CNCc1cccnc1"
  DISCRETE_LABEL: 1.0
- SMILES_REPRESENTATION: "NC/C=C\\CN(C[C@H]1Cc2ccccc2CN1)[C@H]1CCCc2cccnc21"
  DISCRETE_LABEL: 0.0
- SMILES_REPRESENTATION: "CC(C)(CCN(C[C@H]1Cc2ccccc2CN1)[C@H]1CCCc2cccnc21)CNC1CCC(F)(F)CC1"
  DISCRETE_LABEL: 1.0
- SMILES_REPRESENTATION: "CC(C)(CCN(C[C@H]1Cc2ccccc2CN1)[C@H]1CCCc2cccnc21)CNCC1CCOCC1"
  DISCRETE_LABEL: 0.0
- SMILES_REPRESENTATION: "O=S1(=O)CCC(CNCCCCN(C[C@H]2Cc3ccccc3CN2)[C@H]2CCCc3cccnc32)CC1"
  DISCRETE_LABEL: 0.0

Exercise: # check: remaining at 10 min, 0.5 µM < 30% for "c1cncc(CN(CCCCN(C[C@H]2Cc3ccccc3CN2)[C@H]2CCCc3cccnc32)Cc2cccnc2)c1"
Solution: 1.0

Exercise: Subsequent entry: "FC1(F)CCC(NCc2ccc(CN(C[C@H]3Cc4ccccc4CN3)[C@H]3CCCc4cccnc43)cc2)CC1"
Solution: 1.0

Exercise: Entry to check: "FC1(F)CCC(NC/C=C/CN(C[C@H]2Cc3ccccc3CN2)[C@H]2CCCc3cccnc32)CC1"
Solution: 0.0

Exercise: Can you handle "c1ccc2c(c1)CN[C@@H](CN(CCCCN(Cc1ccncc1)Cc1ccncc1)[C@H]1CCCc3cccnc31)C2" next?
Solution: 1.0
